# measured on: CDK8/CycC (Homo sapiens)
# Construct: purchased Carna Biosciences
# Sequence (P49336 whole entry): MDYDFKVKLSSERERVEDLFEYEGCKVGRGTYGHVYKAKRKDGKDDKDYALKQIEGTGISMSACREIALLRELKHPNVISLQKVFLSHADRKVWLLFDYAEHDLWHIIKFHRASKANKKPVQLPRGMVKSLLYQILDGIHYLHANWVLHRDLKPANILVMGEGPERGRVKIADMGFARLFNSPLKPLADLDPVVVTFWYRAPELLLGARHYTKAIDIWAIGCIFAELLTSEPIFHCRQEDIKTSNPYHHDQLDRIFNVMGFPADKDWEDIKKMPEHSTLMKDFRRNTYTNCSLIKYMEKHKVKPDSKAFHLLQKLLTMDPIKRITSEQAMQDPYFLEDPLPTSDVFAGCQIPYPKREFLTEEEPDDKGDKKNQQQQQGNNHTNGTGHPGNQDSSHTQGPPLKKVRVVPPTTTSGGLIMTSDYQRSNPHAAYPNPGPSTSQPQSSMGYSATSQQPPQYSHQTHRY
# Sequence (P24863 whole entry partner): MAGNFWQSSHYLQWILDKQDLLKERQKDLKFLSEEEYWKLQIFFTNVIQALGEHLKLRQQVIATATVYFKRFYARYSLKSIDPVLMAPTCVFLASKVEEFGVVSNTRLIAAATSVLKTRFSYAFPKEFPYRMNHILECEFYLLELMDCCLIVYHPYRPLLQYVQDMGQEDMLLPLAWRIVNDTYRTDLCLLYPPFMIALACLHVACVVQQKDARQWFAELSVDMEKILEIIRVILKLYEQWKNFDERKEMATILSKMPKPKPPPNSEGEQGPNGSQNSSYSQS
# assay procedure: CDK8 inhibitory activity (TR-FRET, Kinase Tracer-236 displacement)
# Format: binding
# condition parameters: 1 μM of the test compound; read-out: Percent inhibition of CDK8 activity (%)
# Method: The compound of the present invention was evaluated for its CDK8 inhibitory activity and CDK19 inhibitory activity by the following method. […] After the addition, the plate was left standing at room temperature for 1 hour, and then, the fluorescence intensity (excitation wavelength 320 nm, fluorescence wavelength 615 nm, 665 nm, delay time 50 μsec) was measured using an EnVision plate reader (PerkinElmer).
property label: inhibition at 1 µM (%)

{"compound": "COC(C)c1ccc(NC(=O)/C=C/c2cnccc2-c2cnn(C3CC3)c2)cc1 (stereo not shown)", "inhibition at 1 µM [%]": 102}
{"compound": "Cn1cc(-c2ccncc2/C=C/C(=O)Nc2ccc3c(c2)OCCO3)cn1", "inhibition at 1 µM [%]": 100}
{"compound": "Cn1cc(-c2ccncc2/C=C/C(=O)Nc2ccc3c(c2)CCN(CC(F)(F)F)C3)cn1", "inhibition at 1 µM [%]": 98}
{"compound": "Cn1cc(-c2ccncc2/C=C/C(=O)Nc2ccc(CNC3CC(F)(F)C3)cc2)cn1", "inhibition at 1 µM [%]": 96}

---

# measured on: CDK19 (CDC2L6/CycC) (Homo sapiens, UniProt Q9BWU1)
# Construct: purchased Carna Biosciences
# Sequence (Q9BWU1 whole entry): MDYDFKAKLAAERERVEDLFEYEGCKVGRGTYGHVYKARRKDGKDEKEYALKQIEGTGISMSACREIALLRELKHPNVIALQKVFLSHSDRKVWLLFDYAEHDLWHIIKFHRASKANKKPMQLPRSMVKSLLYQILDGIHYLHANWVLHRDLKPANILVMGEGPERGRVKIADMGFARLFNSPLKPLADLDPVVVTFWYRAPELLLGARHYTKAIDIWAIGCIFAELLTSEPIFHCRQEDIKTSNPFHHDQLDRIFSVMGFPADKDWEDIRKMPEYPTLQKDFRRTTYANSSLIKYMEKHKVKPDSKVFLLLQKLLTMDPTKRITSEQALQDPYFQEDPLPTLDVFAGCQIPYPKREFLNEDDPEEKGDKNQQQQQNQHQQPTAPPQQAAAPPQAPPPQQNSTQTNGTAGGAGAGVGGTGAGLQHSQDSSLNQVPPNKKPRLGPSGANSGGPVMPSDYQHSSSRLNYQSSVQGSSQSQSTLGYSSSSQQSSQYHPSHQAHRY
# Sequence (P24863 whole entry partner): as the sequence (P24863 whole entry partner) above
# assay procedure: CDK19 inhibitory activity (TR-FRET, Kinase Tracer-236 displacement)
# Format: binding
# condition parameters: 1 μM of the test compound; read-out: Percent inhibition of CDK19 activity (%)
property label: inhibition at 1 µM (%)

{"compound": "Cn1cc(-c2ccncc2/C=C/C(=O)Nc2ccc(CNC3CC3)cc2)cn1 [Example 49]", "measured on": "CDK19 (CDC2L6/CycC) (Homo sapiens, UniProt Q9BWU1)", "inhibition at 1 µM, %": 96}
{"compound": "O=C(/C=C/c1cnccc1-c1cncs1)Nc1ccc(CN2CCOCC2)cc1 [Example 195]", "measured on": "CDK19 (CDC2L6/CycC) (Homo sapiens, UniProt Q9BWU1)", "inhibition at 1 µM, %": 97}
{"compound": "Cn1cc(-c2ccncc2/C=C/C(=O)Nc2ccc3c(c2)CCN(CC(F)(F)F)C3)cn1 [Example 277]", "measured on": "CDK19 (CDC2L6/CycC) (Homo sapiens, UniProt Q9BWU1)", "inhibition at 1 µM, %": 101}
{"compound": "O=C(/C=C/c1cnccc1-c1cnn(C2CC2)c1)Nc1ccc2c(c1)CN(CC(F)(F)F)C2 [Example 319]", "measured on": "CDK19 (CDC2L6/CycC) (Homo sapiens, UniProt Q9BWU1)", "inhibition at 1 µM, %": 101}
{"compound": "Cn1cc(-c2ccncc2/C=C/C(=O)Nc2ccc3c(c2)CCCC3=O)cn1 [Example 191]", "measured on": "CDK19 (CDC2L6/CycC) (Homo sapiens, UniProt Q9BWU1)", "inhibition at 1 µM, %": 92}
{"compound": "O=C(/C=C/c1cnccc1-c1cnn(C2CC2)c1)Nc1ccc(COCC(F)(F)F)cc1F [Example 330]", "measured on": "CDK19 (CDC2L6/CycC) (Homo sapiens, UniProt Q9BWU1)", "inhibition at 1 µM, %": 96}
{"compound": "Cn1cc(-c2c(F)cncc2/C=C/C(=O)Nc2ccc(CN3CCOCC3)cc2F)cn1 [Example 260]", "measured on": "CDK19 (CDC2L6/CycC) (Homo sapiens, UniProt Q9BWU1)", "inhibition at 1 µM, %": 99}
{"compound": "Cn1cc(-c2ccncc2/C=C/C(=O)Nc2ccc(CN3CCC(F)(F)C3)cc2)cn1 [Example 68]", "measured on": "CDK19 (CDC2L6/CycC) (Homo sapiens, UniProt Q9BWU1)", "inhibition at 1 µM, %": 100}
{"compound": "Cn1cc(-c2ccncc2/C=C/C(=O)Nc2ccc(Cn3cccn3)cc2)cn1 [Example 274]", "measured on": "CDK19 (CDC2L6/CycC) (Homo sapiens, UniProt Q9BWU1)", "inhibition at 1 µM, %": 97}
{"compound": "Cn1cc(-c2ccncc2/C=C/C(=O)Nc2ccc(CN3CCC4(CC3)COC4)cc2)cn1 [Example 84]", "measured on": "CDK19 (CDC2L6/CycC) (Homo sapiens, UniProt Q9BWU1)", "inhibition at 1 µM, %": 97}
{"compound": "O=C(/C=C/c1cnccc1-c1cnn(C2CC2)c1)Nc1ccc2c(c1)CN(CC(F)(F)F)CC2 [Example 247]", "measured on": "CDK19 (CDC2L6/CycC) (Homo sapiens, UniProt Q9BWU1)", "inhibition at 1 µM, %": 102}
{"compound": "Cn1cc(-c2ccncc2/C=C/C(=O)Nc2ccc3ccncc3c2)cn1 [Example 156]", "measured on": "CDK19 (CDC2L6/CycC) (Homo sapiens, UniProt Q9BWU1)", "inhibition at 1 µM, %": 94}
{"compound": "Cn1cc(-c2ccncc2/C=C/C(=O)Nc2ccc(CCN3CCOCC3)cc2)cn1 [Example 91]", "measured on": "CDK19 (CDC2L6/CycC) (Homo sapiens, UniProt Q9BWU1)", "inhibition at 1 µM, %": 101}
{"compound": "O=C(/C=C/c1cnccc1-c1ccns1)Nc1ccc(CN2CCOCC2)cc1 [Example 196]", "measured on": "CDK19 (CDC2L6/CycC) (Homo sapiens, UniProt Q9BWU1)", "inhibition at 1 µM, %": 98}
{"compound": "Cn1cnc2ccc(-c3c(F)cncc3/C=C/C(=O)Nc3ccc4c(c3)CN(CC(F)(F)F)C4)cc21 [Example 357]", "measured on": "CDK19 (CDC2L6/CycC) (Homo sapiens, UniProt Q9BWU1)", "inhibition at 1 µM, %": 96}
{"compound": "O=C(/C=C/c1cnccc1-c1cnn(C2CC2)c1)Nc1ccc2c(c1)CN(CC(F)(F)CO)C2 [Example 340]", "measured on": "CDK19 (CDC2L6/CycC) (Homo sapiens, UniProt Q9BWU1)", "inhibition at 1 µM, %": 96}
{"compound": "Cn1cnc2ccc(-c3ccncc3/C=C/C(=O)Nc3ccc4c(ccn4CC(F)(F)F)c3)cc21 [Example 298]", "measured on": "CDK19 (CDC2L6/CycC) (Homo sapiens, UniProt Q9BWU1)", "inhibition at 1 µM, %": 84}
{"compound": "Cn1cc(-c2ccncc2/C=C/C(=O)Nc2ccc(Oc3ccncc3)cc2)cn1 [Example 137]", "measured on": "CDK19 (CDC2L6/CycC) (Homo sapiens, UniProt Q9BWU1)", "inhibition at 1 µM, %": 96}
{"compound": "O=C(/C=C/c1cnccc1-c1ccc2ncn(CC3CC3)c2c1)Nc1ccc(CN2CCOCC2)cc1 [Example 283]", "measured on": "CDK19 (CDC2L6/CycC) (Homo sapiens, UniProt Q9BWU1)", "inhibition at 1 µM, %": 96}
{"compound": "CCN1CCc2ccc(NC(=O)/C=C/c3cnccc3-c3cnn(C)c3)cc2C1 [Example 257]", "measured on": "CDK19 (CDC2L6/CycC) (Homo sapiens, UniProt Q9BWU1)", "inhibition at 1 µM, %": 95}
{"compound": "COc1ccsc1-c1ccncc1/C=C/C(=O)Nc1ccc(CN2CCOCC2)cc1 [Example 100]", "measured on": "CDK19 (CDC2L6/CycC) (Homo sapiens, UniProt Q9BWU1)", "inhibition at 1 µM, %": 100}
{"compound": "CC(=O)n1cc(-c2ccncc2/C=C/C(=O)Nc2ccc(CN3CCOCC3)cc2)cn1 [Example 218]", "measured on": "CDK19 (CDC2L6/CycC) (Homo sapiens, UniProt Q9BWU1)", "inhibition at 1 µM, %": 101}
{"compound": "Cn1cc(-c2ccncc2/C=C/C(=O)Nc2ccc3c(c2)CCO3)cn1 [Example 172]", "measured on": "CDK19 (CDC2L6/CycC) (Homo sapiens, UniProt Q9BWU1)", "inhibition at 1 µM, %": 95}
{"compound": "Cn1cc(-c2ccncc2/C=C/C(=O)Nc2ccc(N3CC(F)(F)C3)cc2)cn1 [Example 363]", "measured on": "CDK19 (CDC2L6/CycC) (Homo sapiens, UniProt Q9BWU1)", "inhibition at 1 µM, %": 99}
{"compound": "CC1CN(Cc2ccc(NC(=O)/C=C/c3cnccc3-c3cnn(C)c3)cc2)CCO1 (stereo not drawn) [Example 55]", "measured on": "CDK19 (CDC2L6/CycC) (Homo sapiens, UniProt Q9BWU1)", "inhibition at 1 µM, %": 97}
{"compound": "CC(C)(F)Cc1ccc(NC(=O)/C=C/c2cncc(F)c2-c2cnn(C3CC3)c2)cc1 [Example 348]", "measured on": "CDK19 (CDC2L6/CycC) (Homo sapiens, UniProt Q9BWU1)", "inhibition at 1 µM, %": 101}
{"compound": "Cn1cc(-c2ccncc2/C=C/C(=O)Nc2ccc(CN3CC(F)(F)C3)cc2)cn1 [Example 69]", "measured on": "CDK19 (CDC2L6/CycC) (Homo sapiens, UniProt Q9BWU1)", "inhibition at 1 µM, %": 99}
{"compound": "O=C(/C=C/c1cnccc1-c1cnn(CC2(F)CC2)c1)Nc1ccc(CN2CCOCC2)cc1 [Example 288]", "measured on": "CDK19 (CDC2L6/CycC) (Homo sapiens, UniProt Q9BWU1)", "inhibition at 1 µM, %": 101}
{"compound": "Cn1cc(-c2ccncc2/C=C/C(=O)Nc2ccc(CN3CCOC(C)(C)C3)cc2)cn1 [Example 37]", "measured on": "CDK19 (CDC2L6/CycC) (Homo sapiens, UniProt Q9BWU1)", "inhibition at 1 µM, %": 101}
{"compound": "O=C(/C=C/c1cnccc1-c1cnsc1)Nc1ccc(CN2CCOCC2)cc1 [Example 145]", "measured on": "CDK19 (CDC2L6/CycC) (Homo sapiens, UniProt Q9BWU1)", "inhibition at 1 µM, %": 94}
{"compound": "CN(C)CCOc1ccc(NC(=O)/C=C/c2cnccc2-c2cnn(C)c2)cc1 [Example 252]", "measured on": "CDK19 (CDC2L6/CycC) (Homo sapiens, UniProt Q9BWU1)", "inhibition at 1 µM, %": 93}
{"compound": "O=C(/C=C/c1cnccc1-c1cnn(C2CC2)c1)Nc1ccc(CN2CC(F)C2)cc1 [Example 365]", "measured on": "CDK19 (CDC2L6/CycC) (Homo sapiens, UniProt Q9BWU1)", "inhibition at 1 µM, %": 99}
{"compound": "O=C(/C=C/c1cnccc1-c1cnn(Cc2ccccn2)c1)Nc1ccc(CN2CCOCC2)cc1 [Example 47]", "measured on": "CDK19 (CDC2L6/CycC) (Homo sapiens, UniProt Q9BWU1)", "inhibition at 1 µM, %": 98}

Every entry's value here was drawn from patent US9957251B2.
